- Tested on: biotinyl-Leu-oxazolone
- EXPERIMENT DESCRIPTION: self-aminoacylation, catalytic enhancement (BLO) (fold over background); higher = more active; k-Seq, kA / k0A0; sequences stand for … in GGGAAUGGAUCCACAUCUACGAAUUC…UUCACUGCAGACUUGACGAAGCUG
Variants at the floor of the assay were thinned out.
self-aminoacylation reference
PROPERTY LABEL: self-aminoacylation

                        biopolymer_sequence       property_label    val
0  AUGUUUGCUAAUAGUCGCCAG [Fam3.1 aminoacylation ribozyme variant]  self-aminoacylation   1.51
1  CCACACUUCAAGGAAUCGGCC [Fam1B.1 aminoacylation ribozyme variant]  self-aminoacylation   2.39
2  CCACACUUCAAGCAAUCAGUU [Fam1B.1 aminoacylation ribozyme variant]  self-aminoacylation  0.925
3  CCACAGUUCAAGCAAUCGGGC [Fam1B.1 aminoacylation ribozyme variant]  self-aminoacylation   2.18

---

- Test system: biotinyl-Leu-oxazolone
- EXPERIMENT DESCRIPTION: self-aminoacylation, catalytic enhancement (BLO) (fold over background); higher = more active; k-Seq, kA / k0A0; sequences stand for … in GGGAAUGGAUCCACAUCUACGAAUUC…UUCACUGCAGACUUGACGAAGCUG
Variants at the floor of the assay were thinned out.
# self-aminoacylation >= 1 gives rule met, anything below gives rule not met

                        biopolymer_sequence           target_system    class_name
0  CUACUUCAAACACUCGUUCUG [Fam1A.1 aminoacylation ribozyme variant]  biotinyl-Leu-oxazolone  rule not met
1  AUUACCUUGGUCAUCGAGUGU [Fam2.1 aminoacylation ribozyme variant]  biotinyl-Leu-oxazolone      rule met
2  CUACUUCAAACAAGCUGUCUG [Fam1A.1 aminoacylation ribozyme variant]  biotinyl-Leu-oxazolone  rule not met
3  AUGUUUUCUAAUAGUCGCAAG [Fam3.1 aminoacylation ribozyme variant]  biotinyl-Leu-oxazolone      rule met

---

- Test system: biotinyl-Leu-oxazolone
- EXPERIMENT DESCRIPTION: self-aminoacylation, catalytic enhancement (BLO) (fold over background); higher = more active; k-Seq, kA / k0A0; sequences stand for … in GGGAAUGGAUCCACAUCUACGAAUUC…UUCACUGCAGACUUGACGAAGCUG
This sample holds only a part of the variants without activity.
# self-aminoacylation >= 0.9 gives class 1, anything below gives class 0

>>> print(df.to_string())
                        biopolymer_sequence           target_system  class_name
0  CCACUAUUCAAGCAAUCGGUC [Fam1B.1 aminoacylation ribozyme variant]  biotinyl-Leu-oxazolone     class 1
1  GUACUUCAAACAACCGGUCUG [Fam1A.1 aminoacylation ribozyme variant]  biotinyl-Leu-oxazolone     class 1
2  AUUUCCCUUGUCAUCGAGUGA [Fam2.1 aminoacylation ribozyme variant]  biotinyl-Leu-oxazolone     class 1
3  AAGUUGGCUGAUAGUCGCAAG [Fam3.1 aminoacylation ribozyme variant]  biotinyl-Leu-oxazolone     class 1
4  AUUACCCUCGUCAUCGAGUAA [Fam2.1 aminoacylation ribozyme variant]  biotinyl-Leu-oxazolone     class 1
5  CUACUUCAAACAACCGGUCUG [Fam1A.1 aminoacylation ribozyme variant]  biotinyl-Leu-oxazolone     class 0

---

self-aminoacylation reference
- Tested on: biotinyl-Val-oxazolone
- EXPERIMENT DESCRIPTION: self-aminoacylation, catalytic enhancement (BVO) (fold over background); higher = more active; k-Seq, kA / k0A0; sequences stand for … in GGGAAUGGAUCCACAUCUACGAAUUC…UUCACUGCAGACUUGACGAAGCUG
This sample holds only a part of the variants without activity.
PROPERTY LABEL: self-aminoacylation

>>> print(df.to_string())
                        biopolymer_sequence           target_system       property_label    val
0  AUUAACCUAGGUCAUGGGGUG [Fam2.2 aminoacylation ribozyme variant]  biotinyl-Val-oxazolone  self-aminoacylation   2.38
1  CCACACUUCAAGCUAUCGGUG [Fam1B.1 aminoacylation ribozyme variant]  biotinyl-Val-oxazolone  self-aminoacylation   3.77
2  CCACACUUCUAGCAAUCAGUC [Fam1B.1 aminoacylation ribozyme variant]  biotinyl-Val-oxazolone  self-aminoacylation  0.721
3  CCACAGUUCAAGCAAUCCGUC [Fam1B.1 aminoacylation ribozyme variant]  biotinyl-Val-oxazolone  self-aminoacylation    1.2
